Field: AUCall. Provide a value for each of the compounds that follow.
Assay: in vivo
Assay type: in vivo
Settings: rat, IV, 1 mg/kg

**Query** Which AUCall value belongs to CCN1CCN(c2ccc(/C(=C(/CCCO)c3ccccc3)c3ccc(C)cc3)cc2)CC1 [Compound 18j] ?
**Result** 0.55 μMh

**Query** What about this compound? OCCC/C(=C(\c1ccc(O)cc1)c1ccc(C2CNC2)cc1)c1ccccc1 [Compound 20e]
**Result** 0.28 μMh

**Query** What about this compound? CC(C)N1CCN(c2ccc(/C(=C(/CCCO)c3ccccc3)c3ccc(Br)cc3)cc2)CC1 [Compound 18e]
**Result** 0.06 μMh

**Query** What about this compound? CN(C)CCOc1ccc(/C(=C(/CCCO)c2ccccc2)c2ccc(O)cc2)cc1 [GSK5182, reference compound]
**Result** 0.89 μMh

**Query** What about this compound? OCCC/C(=C(/c1ccc(C2CCN(C3CC3)CC2)cc1)c1cccc(O)c1)c1ccccc1 [Compound 22r]
**Result** 0.85 μMh

**Query** What about this compound? CC(C)N1CCC(c2ccc(/C(=C(/CCCO)c3ccccc3)c3cccc(O)c3)cc2)CC1 [Compound 22m]
**Result** 0.34 μMh

**Query** What about this compound? OCCC/C(=C(\c1ccc(O)cc1)c1ccc(C2CCN(C3CC3)CC2)cc1)c1ccccc1 [Compound 22i]
**Result** 0.49 μMh

* * *

Settings: 1 μM, 30 minutes, 37° C., NADPH
Decide using MS(Microsomal Stability) (%) rat alone. Strictly below 60%: true (1). Equal to or above 60%: false (0).

**Query** Quick check: does CC(C)N1CCC(c2ccc(/C(=C(/CCCO)c3ccccc3)c3ccc(O)cc3)cc2)CC1 [Compound 22g] have MS(Microsomal Stability) (%) rat under 60%?
**Result** true (1)

**Query** What about this compound? CC(C)N1CCN(c2ccc(/C(=C(/CCCO)c3ccccc3)c3ccc(N)cc3)cc2)CC1 [Compound 26b]
**Result** true (1)

**Query** What about this compound? CCN1CCC(c2ccc(C(=C(CCCO)c3ccccc3)c3cccc(O)c3)cc2)CC1 [Compound 22ae]
**Result** true (1)

**Query** What about this compound? CC(=O)Nc1ccc(/C(=C(\CCCO)c2ccccc2)c2ccc(C3CCN(C4CC4)CC3)cc2)cc1 [Compound 27c]
**Result** false (0)

**Query** What about this compound? Cc1ccc(/C(=C(\CCCO)c2ccccc2)c2ccc(C3CCNCC3)cc2)cc1 [Compound 20k]
**Result** false (0)

**Query** What about this compound? Cc1ccc(/C(=C(\CCCO)c2ccccc2)c2ccc(N3CCN(C)CC3)cc2)cc1 [Compound 18f]
**Result** false (0)

**Query** What about this compound? OCCC/C(=C(\c1ccc(O)cc1)c1ccc(N2CCN(C3CCCCC3)CC2)cc1)c1ccccc1 [Compound 22p]
**Result** false (0)

**Query** What about this compound? OCCC/C(=C(\c1ccc(O)cc1)c1ccc(C2CNC2)cc1)c1ccccc1 [Compound 20e]
**Result** false (0)

**Query** What about this compound? OCCC/C(=C(\c1ccc(O)cc1)c1ccc(N2CCN(C3CCC3)CC2)cc1)c1ccccc1 [Compound 22q]
**Result** false (0)

**Query** What about this compound? OCCC/C(=C(\c1ccc(O)cc1)c1ccc(N2CCN(C3CCCC3)CC2)cc1)c1ccccc1 [Compound 22n]
**Result** true (1)

**Query** What about this compound? CC(C)N1CCC(c2ccc(/C(=C(/CCCO)c3ccccc3)c3cccc(O)c3)cc2)CC1 [Compound 22h]
**Result** true (1)

**Query** What about this compound? OCCC/C(=C(\c1ccc(Br)cc1)c1ccc(C2CNC2)cc1)c1ccccc1 [Compound 20f]
**Result** false (0)

**Query** What about this compound? OCCC/C(=C(\c1ccc(O)cc1)c1ccc(N2CCNCC2)cc1)c1ccccc1 [Compound 20j]
**Result** false (0)

**Query** What about this compound? CC(C)N1CCN(c2ccc(/C(=C(/CCCO)c3ccccc3)c3ccc(NS(C)(=O)=O)cc3)cc2)CC1 [Compound 27a]
**Result** false (0)

**Query** What about this compound? CCN1CCN(c2ccc(/C(=C(/CCCO)c3ccccc3)c3ccc(C)cc3)cc2)CC1 [Compound 18j]
**Result** false (0)

**Query** What about this compound? CC(=O)Nc1ccc(/C(=C(\CCCOC(C)=O)c2ccccc2)c2ccc(C3CCN(C4CC4)CC3)cc2)cc1 [Compound 27d]
**Result** false (0)

**Query** What about this compound? CC(C)N1CCC(c2ccc(/C(=C(/CCCO)c3ccccc3)c3cccc(O)c3)cc2)C1 (racemic) [Compound 22u]
**Result** true (1)

**Query** What about this compound? OCCC/C(=C(/c1ccc(C2CCN(C3CC3)CC2)cc1)c1cccc(O)c1)c1ccccc1 [Compound 22r]
**Result** true (1)

**Query** What about this compound? CN1CCC[C@H]1COc1ccc(/C(=C(/CCCO)c2ccccc2)c2ccc(Br)cc2)cc1 [Compound 13b]
**Result** false (0)

**Query** What about this compound? OCCC/C(=C(/c1ccc(C2=CCN(C3CC3)CC2)cc1)c1cccc(O)c1)c1ccccc1 [Compound 22l]
**Result** true (1)

**Query** What about this compound? Cc1ccc(/C(=C(\CCCO)c2ccccc2)c2ccc(C3CNC3)cc2)cc1 [Compound 20d]
**Result** true (1)
